- target-or-system: Phosphodiesterase 3 (Homo sapiens, UniProt Q14432+Q13370)
- assay-comment: Inhibitory concentration against cAMP PDE III enzyme in guinea pig
- Format: protein assay, Cavia porcellus
- condition-description: target entry is the homologue from another species
assay-readout: IC50 (µM)
Field format: number, assumed µM, no unit text.

Looking up O=C1CCC(c2ccc(-n3cnc(CO)c3)cc2)=NN1 , I found its IC50 recorded as 4.1

Record summary for Cc1nccn1-c1ccc(C2=NNC(=O)CC2)cc1 : reported IC50 = 2.3

The recorded IC50 for Nc1cc(-c2ccc(-n3ccnc3)cc2)nnc1O is 22

Consider Cc1cc(O)nnc1-c1ccc(-n2ccnc2)cc1 . Its measured IC50 is 50

Looking up CC1CC(=O)NN=C1c1ccc(-n2cnc3c2CCCC3)cc1 (stereo not given) [TETRAHYDROBENXIMIDAZOLE] , I see its IC50 listed as 0.15

Documented IC50 of O=C1NN=C(c2ccc(-n3ccnc3)cc2)C2CCCCC12 (stereo not given) : 220

Others:
Per the records, this compound ( CC1CC(c2ccc(-n3ccnc3)cc2)=NNC1=O (stereo not given) ) has IC50 equal to 43

Per the record, Oc1ccc(-c2ccc(-c3ncc[nH]3)cc2)nn1 has IC50 of 12

Lab note: measured IC50 of O=C1CCC(c2ccc(-n3cnc4c3CCCC4)cc2)=NN1 was 1.1

Lab note: measured IC50 of CN1N=C(c2ccc(-n3ccnc3)cc2)CCC1=O was 110

----------
Item-by-item account of inhibition
- target-or-system: Phosphodiesterase 3 (Homo sapiens, UniProt Q14432+Q13370)
- assay-comment: Inhibition of cAMP PDE III enzyme in guinea pig at 1E-5M concentration
- Type: protein assay
- condition-description: Cavia porcellus; target entry is the homologue from another species
Reply with a number, then the unit it belongs to.

# compound O=C1CCC(c2ccc(-n3cnnc3)cc2)=NN1 ; its inhibition = 70%

CC(=O)OCCN1N=C(c2ccc(-n3ccnc3)cc2)CCC1=O has a reported inhibition of 16%

Record summary for O=C1NN=C(c2ccc(-n3ccnc3)cc2)C2CCCCC12 (centres undefined) : reported inhibition = 8%

The reported value for CC1(C)CC(=O)NN=C1c1ccc(-n2ccnc2)cc1 in terms of inhibition is 47%

The recorded inhibition for Cc1csc(Nc2ccc(C3=NNC(=O)CC3)cc2)n1 is 58%

Now let's try a different one.
Lab note: CCc1nc(C)cn1-c1ccc(C2=NNC(=O)CC2)cc1 gave inhibition of 59%

----------
Each entry below carries its reported ED50.
- Species on record: Canis familiaris
- assay-comment: Effective dose required to increase myocardial contractility in dog.
- Format: functional
- condition-description: Canis lupus familiaris, Myocardium
Express it in mg/kg; write the number only.

Please review the following examples before continuing.
Given item CCc1nc(C)cn1-c1ccc(C2=NNC(=O)CC2)cc1 , the value recorded as its ED50 is 0.1

Item: CCC1CC(=O)NN=C1c1ccc(-n2ccnc2)cc1 (stereo not drawn) | ED50: 1

We now examine a further molecule.
Record O=C1CCC(c2ccc(-n3cnc(CO)c3)cc2)=NN1 , field ED50: 0.034

----------
Property: IC50; scope: individual molecules
- target-or-system: cGMP-dependent 3',5'-cyclic phosphodiesterase (Homo sapiens, UniProt O00408)
- Sequence (O00408 whole entry): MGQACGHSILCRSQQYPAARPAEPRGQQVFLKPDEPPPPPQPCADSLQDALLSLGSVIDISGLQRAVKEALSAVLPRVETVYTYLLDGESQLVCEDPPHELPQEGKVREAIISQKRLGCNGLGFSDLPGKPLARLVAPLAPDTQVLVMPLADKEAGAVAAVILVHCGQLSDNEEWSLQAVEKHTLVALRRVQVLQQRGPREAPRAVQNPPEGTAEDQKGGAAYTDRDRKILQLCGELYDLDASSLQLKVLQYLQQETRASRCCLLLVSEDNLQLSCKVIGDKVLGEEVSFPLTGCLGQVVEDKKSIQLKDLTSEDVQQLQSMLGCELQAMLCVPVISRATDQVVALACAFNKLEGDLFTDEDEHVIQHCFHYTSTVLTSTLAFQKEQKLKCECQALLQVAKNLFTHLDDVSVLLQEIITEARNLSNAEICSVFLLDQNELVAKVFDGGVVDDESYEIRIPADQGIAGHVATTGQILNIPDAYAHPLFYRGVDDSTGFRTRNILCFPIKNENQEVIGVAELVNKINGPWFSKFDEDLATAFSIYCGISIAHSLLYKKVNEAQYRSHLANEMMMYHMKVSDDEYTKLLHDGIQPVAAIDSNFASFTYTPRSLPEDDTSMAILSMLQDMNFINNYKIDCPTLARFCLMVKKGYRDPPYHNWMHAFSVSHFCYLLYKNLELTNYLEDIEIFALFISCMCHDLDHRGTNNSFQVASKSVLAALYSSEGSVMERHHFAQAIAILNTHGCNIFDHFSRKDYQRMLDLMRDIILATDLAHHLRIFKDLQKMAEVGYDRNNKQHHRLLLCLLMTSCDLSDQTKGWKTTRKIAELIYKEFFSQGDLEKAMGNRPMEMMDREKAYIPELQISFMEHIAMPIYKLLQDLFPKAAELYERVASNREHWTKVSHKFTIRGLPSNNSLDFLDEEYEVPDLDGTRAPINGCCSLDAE
- assay-comment: Inhibitory concentration against cGMP PDE II enzyme in guinea pig
- Design: species or system Cavia porcellus
- condition-description: target entry is the homologue from another species
The reply should be a number in µM, with the unit left off.

Query O=C1NN=C(c2ccc(-n3ccnc3)cc2)C2CCCCC12 (stereo not drawn) yields IC50 of 130

Value of measured IC50 for the entry Nc1cc(-c2ccc(-n3ccnc3)cc2)nnc1O : 88

Now examine the next entry.
Entry CCc1nc(C)cn1-c1ccc(C2=NNC(=O)CC2)cc1 ; IC50 = 92
